- target-system: Hck-YF (Homo sapiens, UniProt P08631, Y522F)
- Sequence (P08631 22-526 Y522F limits assumed): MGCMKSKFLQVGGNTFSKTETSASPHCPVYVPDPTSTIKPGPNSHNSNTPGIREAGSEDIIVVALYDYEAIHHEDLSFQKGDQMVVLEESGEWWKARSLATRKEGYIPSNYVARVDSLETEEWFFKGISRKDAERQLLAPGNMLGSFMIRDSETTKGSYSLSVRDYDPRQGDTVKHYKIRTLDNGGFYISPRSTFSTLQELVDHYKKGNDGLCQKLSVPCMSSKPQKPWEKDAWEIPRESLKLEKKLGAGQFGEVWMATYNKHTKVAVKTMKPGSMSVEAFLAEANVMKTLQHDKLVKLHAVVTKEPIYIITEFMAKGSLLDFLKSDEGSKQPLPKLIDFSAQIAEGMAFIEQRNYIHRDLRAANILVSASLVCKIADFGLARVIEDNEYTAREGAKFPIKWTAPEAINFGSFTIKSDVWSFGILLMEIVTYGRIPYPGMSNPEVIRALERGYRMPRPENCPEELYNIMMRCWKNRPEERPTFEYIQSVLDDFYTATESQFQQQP
- assay-text: Kinase autophosphorylation in transformed Rat-2 cells by immunoblotting, Hck-YF
pIC50: −log10 of the molar value.
reported-endpoint: pIC50

IN: What does the data say about its pIC50? Entry: `COc1cc(N2CCC(N3CCN(C)CC3)CC2)ccc1Nc1ncc(Cl)c(Nc2ccccc2S(=O)(=O)C(C)C)n1`
OUT: < 5.00

* * *

- target-system: Hck-TMYF gatekeeper mutant (Homo sapiens, UniProt P08631, T333M/Y522F)
- Sequence (P08631 22-526 T333M/Y522F limits assumed): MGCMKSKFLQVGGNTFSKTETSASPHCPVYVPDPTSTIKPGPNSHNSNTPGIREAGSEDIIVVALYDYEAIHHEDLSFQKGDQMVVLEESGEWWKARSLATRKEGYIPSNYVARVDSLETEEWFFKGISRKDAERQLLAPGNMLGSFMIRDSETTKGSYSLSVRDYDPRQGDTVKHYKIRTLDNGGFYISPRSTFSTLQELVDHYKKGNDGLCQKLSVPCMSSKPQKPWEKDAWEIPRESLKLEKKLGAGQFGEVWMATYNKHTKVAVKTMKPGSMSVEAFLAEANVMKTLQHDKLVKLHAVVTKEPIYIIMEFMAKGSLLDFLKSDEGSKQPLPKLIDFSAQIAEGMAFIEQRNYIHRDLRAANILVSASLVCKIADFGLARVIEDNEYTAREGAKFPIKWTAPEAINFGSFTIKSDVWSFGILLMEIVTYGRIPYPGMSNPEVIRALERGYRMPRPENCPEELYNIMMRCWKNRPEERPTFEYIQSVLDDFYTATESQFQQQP
- Format: cell-based
reported-endpoint: pIC50
Answers are plain numbers, as −log10 of the molar value.

IN: Provide value of pIC50 for this record tested with Hck-TMYF gatekeeper mutant (Homo sapiens, UniProt P08631, T333M/Y522F): `COc1cc(N2CCC(N3CCN(C)CC3)CC2)ccc1Nc1ncc(Cl)c(Nc2ccccc2S(=O)(=O)C(C)C)n1`
OUT: 6.16
